biological target: Sap1 of Candida albicans (Candida albicans)
Sequence (P0CY27 51-391): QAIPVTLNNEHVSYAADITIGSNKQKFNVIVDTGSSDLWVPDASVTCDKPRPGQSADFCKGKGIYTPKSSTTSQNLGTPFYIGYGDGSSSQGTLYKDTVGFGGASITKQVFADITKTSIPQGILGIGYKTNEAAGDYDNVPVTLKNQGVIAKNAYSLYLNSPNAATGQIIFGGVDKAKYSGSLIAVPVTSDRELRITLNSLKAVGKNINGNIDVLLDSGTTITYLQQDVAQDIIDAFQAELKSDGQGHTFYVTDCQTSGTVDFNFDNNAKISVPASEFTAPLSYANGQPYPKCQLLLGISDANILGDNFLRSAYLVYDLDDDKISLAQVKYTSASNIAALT
Non-standard residues stand in square brackets, D forms with d. Residues, ends and D or L forms follow the SMILES beside them. *: point of attachment. Phe(4-F) = N[C@@H](Cc1ccc(F)cc1)C(=O)O; Phe(2-F) = N[C@@H](Cc1ccccc1F)C(=O)O; Sta = CC(C)C[C@H](N)[C@@H](O)CC(=O)O; Isovaleryl = CC(C)CC(=O)*
experimental endpoint: IC50

{"compound": "Cc1cccc(C)c1OCC(=O)N[C@@H](Cc1ccccc1)[C@@H](O)C[C@H](Cc1ccccc1)NC(=O)[C@H](C(C)C)N1CCCNC1=O [Lopinavir, reference compound]", "experimental endpoint": "IC50", "reported value": "312000 nM"}
{"compound": "CC(C)CN(C[C@@H](O)[C@H](Cc1ccccc1)NC(=O)O[C@H]1CCOC1)S(=O)(=O)c1ccc(N)cc1 [Amprenavir, reference compound]", "experimental endpoint": "IC50", "reported value": "~5000 nM"}
{"compound": "CC(C)CC(=O)N[C@H](C(=O)N[C@H](C(=O)N[C@@H](CC(C)C)[C@@H](O)CC(=O)N[C@@H](CCCNC(=N)N)C(=O)N[C@@H](CC(C)C)[C@@H](O)CC(=O)O)C(C)C)C(C)C [P1'(Arg)-pepstatin, (N-Iva-Val)-Val-Sta-Arg-Sta] (Isovaleryl-VV[Sta]R[Sta]-OH)", "experimental endpoint": "IC50", "reported value": "~10 nM"}
{"compound": "CC(C)CC(=O)N[C@@H](Cc1ccc(F)cc1)C(=O)N[C@H](C(=O)N[C@@H](CC(C)C)[C@@H](O)CC(=O)N[C@@H](C)C(=O)N[C@@H](CC(C)C)[C@@H](O)CC(=O)O)C(C)C [P3(p-FPhe)-pepstatin, (N-Iva-pFPhe)-Val-Sta-Ala-Sta] (Isovaleryl-[Phe(4-F)]V[Sta]A[Sta]-OH)", "experimental endpoint": "IC50", "reported value": "< 5 nM"}
{"compound": "CC(C)CC(=O)N[C@@H](Cc1ccccc1F)C(=O)N[C@H](C(=O)N[C@@H](CC(C)C)[C@@H](O)CC(=O)N[C@@H](C)C(=O)N[C@@H](CC(C)C)[C@@H](O)CC(=O)O)C(C)C [P3(o-FPhe)-pepstatin, (N-Iva-oFPhe)-Val-Sta-Ala-Sta] (Isovaleryl-[Phe(2-F)]V[Sta]A[Sta]-OH)", "experimental endpoint": "IC50", "reported value": "~20 nM"}
{"compound": "CC(C)CC(=O)N[C@@H](Cc1ccc(O)cc1)C(=O)N[C@H](C(=O)N[C@@H](CC(C)C)[C@@H](O)CC(=O)N[C@@H](C)C(=O)N[C@@H](CC(C)C)[C@@H](O)CC(=O)O)C(C)C [P3(Tyr)-pepstatin, (N-Iva-Tyr)-Val-Sta-Ala-Sta] (Isovaleryl-YV[Sta]A[Sta]-OH)", "experimental endpoint": "IC50", "reported value": "< 5 nM"}
{"compound": "Cc1c(O)cccc1C(=O)N[C@@H](CSc1ccccc1)[C@H](O)CN1C[C@H]2CCCC[C@H]2C[C@H]1C(=O)NC(C)(C)C [Nelfinavir, reference compound]", "experimental endpoint": "IC50", "reported value": "~250000 nM"}
{"compound": "CC(C)CC(=O)N[C@@H](Cc1ccccc1)C(=O)N[C@H](C(=O)N[C@@H](CC(C)C)[C@@H](O)CC(=O)N[C@@H](C)C(=O)N[C@@H](CC(C)C)[C@@H](O)CC(=O)O)C(C)C [P3(Phe)-pepstatin, (N-Iva-Phe)-Val-Sta-Ala-Sta] (Isovaleryl-FV[Sta]A[Sta]-OH)", "experimental endpoint": "IC50", "reported value": "~5 nM"}

====

As a worked illustration, we turn to pIC50 data collected for Sap3 of Candida albicans (Candida albicans).
pIC50: −log10 of the molar value. Starred links: 1 amine or outer side, 2 acyl side, 3 side chain; linkers in the order of their positions; H or OH if unused. Non-standard residues stand in square brackets, D forms with d. Residues, ends and D or L forms follow the SMILES beside them. *: point of attachment. X1 = CC(F)(F)C[C@H](N[*:1])C(=O)[*:2]; Sta = CC(C)C[C@H](N)[C@@H](O)CC(=O)O; Isovaleryl = CC(C)CC(=O)*

{"compound": "CC(C)CC(=O)N[C@H](C(=O)N[C@@H](CC(C)(F)F)C(=O)N[C@@H](CC(C)C)[C@@H](O)CC(=O)N[C@@H](C)C(=O)N[C@@H](CC(C)C)[C@@H](O)CC(=O)O)C(C)C [P2(DfpGly)-pepstatin, (N-Iva-Val)-DfpGly-Sta-Ala-Sta] (Isovaleryl-V[X1][Sta]A[Sta]-OH)", "pIC50": "~8.30"}
{"compound": "CC(C)CC(=O)N[C@H](C(=O)N[C@H](C(=O)N[C@@H](CC(C)C)[C@@H](O)CC(=O)N[C@@H](C)C(=O)N[C@@H](CC(C)C)[C@@H](O)CC(=O)O)C(C)C)C(C)C [Pepstatin A] (Isovaleryl-VV[Sta]A[Sta]-OH)", "pIC50": "~9.00"}
{"compound": "CC(C)CC(=O)N[C@@H](Cc1ccc(O)cc1)C(=O)N[C@H](C(=O)N[C@@H](CC(C)C)[C@@H](O)CC(=O)N[C@@H](C)C(=O)N[C@@H](CC(C)C)[C@@H](O)CC(=O)O)C(C)C [P3(Tyr)-pepstatin, (N-Iva-Tyr)-Val-Sta-Ala-Sta] (Isovaleryl-YV[Sta]A[Sta]-OH)", "pIC50": "> 8.30"}
{"compound": "CC(C)CN(C[C@@H](O)[C@H](Cc1ccccc1)NC(=O)O[C@H]1CCOC1)S(=O)(=O)c1ccc(N)cc1 [Amprenavir, reference compound]", "pIC50": "~4.70"}

====

Listing: pIC50 of selected compounds
target: Sap6 of Candida albicans (Candida albicans, UniProt Q5AC08)
Sequence (Q5AC08 77-418): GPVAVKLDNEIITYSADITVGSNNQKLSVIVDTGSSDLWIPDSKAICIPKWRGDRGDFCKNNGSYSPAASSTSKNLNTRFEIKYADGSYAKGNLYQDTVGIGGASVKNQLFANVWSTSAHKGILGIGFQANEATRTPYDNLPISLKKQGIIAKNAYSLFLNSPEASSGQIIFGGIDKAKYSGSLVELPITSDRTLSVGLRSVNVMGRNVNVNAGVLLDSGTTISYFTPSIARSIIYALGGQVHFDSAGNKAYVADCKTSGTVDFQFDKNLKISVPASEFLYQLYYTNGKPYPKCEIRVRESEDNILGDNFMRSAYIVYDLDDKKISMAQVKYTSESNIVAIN
pIC50: −log10 of the molar value. Non-standard residues stand in square brackets, D forms with d. Residues, ends and D or L forms follow the SMILES beside them. *: point of attachment. Sta = CC(C)C[C@H](N)[C@@H](O)CC(=O)O; Isovaleryl = CC(C)CC(=O)*

{"compound": "Cc1cccc(C)c1OCC(=O)N[C@@H](Cc1ccccc1)[C@@H](O)C[C@H](Cc1ccccc1)NC(=O)[C@H](C(C)C)N1CCCNC1=O [Lopinavir, reference compound]", "pIC50": "< 3.51"}
{"compound": "CC(C)CC(=O)N[C@@H](Cc1ccccc1)C(=O)N[C@H](C(=O)N[C@@H](CC(C)C)[C@@H](O)CC(=O)N[C@@H](C)C(=O)N[C@@H](CC(C)C)[C@@H](O)CC(=O)O)C(C)C [P3(Phe)-pepstatin, (N-Iva-Phe)-Val-Sta-Ala-Sta] (Isovaleryl-FV[Sta]A[Sta]-OH)", "pIC50": "~8.00"}
{"compound": "CC(C)(C)NC(=O)[C@@H]1C[C@@H]2CCCC[C@@H]2CN1C[C@@H](O)[C@H](Cc1ccccc1)NC(=O)[C@H](CC(N)=O)NC(=O)c1ccc2ccccc2n1 [Saquinavir, reference compound]", "pIC50": "< 3.51"}
{"compound": "CC(C)CC(=O)N[C@@H](CC(C)C)C(=O)N[C@H](C(=O)N[C@@H](CC(C)C)[C@@H](O)CC(=O)N[C@@H](C)C(=O)N[C@@H](CC(C)C)[C@@H](O)CC(=O)O)C(C)C [P3(Leu)-pepstatin, (N-Iva-Leu)-Val-Sta-Ala-Sta, reference compound] (Isovaleryl-LV[Sta]A[Sta]-OH)", "pIC50": "< 6.30"}

====

As a worked illustration, we turn to IC50 data collected for Sap6 of Candida albicans (Candida albicans).
Starred links: 1 amine or outer side, 2 acyl side, 3 side chain; linkers in the order of their positions; H or OH if unused. Non-standard residues stand in square brackets, D forms with d. Residues, ends and D or L forms follow the SMILES beside them. *: point of attachment. Abu(4,4,4-F3) = N[C@@H](CC(F)(F)F)C(=O)O; Phe(3-F) = N[C@@H](Cc1cccc(F)c1)C(=O)O; Phe(4-F) = N[C@@H](Cc1ccc(F)cc1)C(=O)O; X1 = CC(F)(F)C[C@H](N[*:1])C(=O)[*:2]; Sta = CC(C)C[C@H](N)[C@@H](O)CC(=O)O; Isovaleryl = CC(C)CC(=O)*; Nle = CCCC[C@H](N)C(=O)O; Orn = NCCC[C@H](N)C(=O)O; Abu = CC[C@H](N)C(=O)O
experimental endpoint: IC50

{"compound": "CC(C)CC(=O)N[C@H](C(=O)N[C@@H](CCCCN)C(=O)N[C@@H](CC(C)C)[C@@H](O)CC(=O)N[C@@H](C)C(=O)N[C@@H](CC(C)C)[C@@H](O)CC(=O)O)C(C)C [P2(Lys)-pepstatin, (N-Iva-Val)-Lys-Sta-Ala-Sta] (Isovaleryl-VK[Sta]A[Sta]-OH)", "experimental endpoint": "IC50", "reported value": "50 nM"}
{"compound": "CC(C)CC(=O)N[C@@H](Cc1cccc(F)c1)C(=O)N[C@H](C(=O)N[C@@H](CC(C)C)[C@@H](O)CC(=O)N[C@@H](C)C(=O)N[C@@H](CC(C)C)[C@@H](O)CC(=O)O)C(C)C [P3(m-FPhe)-pepstatin, (N-Iva-mFPhe)-Val-Sta-Ala-Sta] (Isovaleryl-[Phe(3-F)]V[Sta]A[Sta]-OH)", "experimental endpoint": "IC50", "reported value": "10 nM"}
{"compound": "CC(C)CC(=O)N[C@H](C(=O)N[C@@H](CC(C)C)C(=O)N[C@@H](CC(C)C)[C@@H](O)CC(=O)N[C@@H](C)C(=O)N[C@@H](CC(C)C)[C@@H](O)CC(=O)O)C(C)C [P2(Leu)-pepstatin, (N-Iva-Val)-Leu-Sta-Ala-Sta, reference compound] (Isovaleryl-VL[Sta]A[Sta]-OH)", "experimental endpoint": "IC50", "reported value": "~200 nM"}
{"compound": "CC(C)CC(=O)N[C@H](C(=O)N[C@H](C(=O)N[C@@H](CC(C)C)[C@@H](O)CC(=O)N[C@@H](CCCCN)C(=O)N[C@@H](CC(C)C)[C@@H](O)CC(=O)O)C(C)C)C(C)C [P1'(Lys)-pepstatin, (N-Iva-Val)-Val-Sta-Lys-Sta] (Isovaleryl-VV[Sta]K[Sta]-OH)", "experimental endpoint": "IC50", "reported value": "~7 nM"}
{"compound": "CCCC[C@H](NC(=O)[C@H](Cc1ccccc1)NC(=O)CC(C)C)C(=O)N[C@@H](CC(C)C)[C@@H](O)CC(=O)N[C@@H](CCCCN)C(=O)N[C@@H](CC(C)C)[C@@H](O)CC(=O)O [Compound K, (N-Iva-Phe)-Nle-Sta-Lys-Sta] (Isovaleryl-F[Nle][Sta]K[Sta]-OH)", "experimental endpoint": "IC50", "reported value": "~50 nM"}
{"compound": "CC[C@H](NC(=O)[C@@H](NC(=O)CC(C)C)C(C)C)C(=O)N[C@@H](CC(C)C)[C@@H](O)CC(=O)N[C@@H](C)C(=O)N[C@@H](CC(C)C)[C@@H](O)CC(=O)O [P2(Abu)-pepstatin, (N-Iva-Val)-Abu-Sta-Ala-Sta, reference compound] (Isovaleryl-V[Abu][Sta]A[Sta]-OH)", "experimental endpoint": "IC50", "reported value": "~20 nM"}
{"compound": "CCCC[C@H](NC(=O)[C@@H](NC(=O)CC(C)C)C(C)C)C(=O)N[C@@H](CC(C)C)[C@@H](O)CC(=O)N[C@@H](C)C(=O)N[C@@H](CC(C)C)[C@@H](O)CC(=O)O [P2(Nle)-pepstatin, (N-Iva-Val)-N/e-Sta-Ala-Sta] (Isovaleryl-V[Nle][Sta]A[Sta]-OH)", "experimental endpoint": "IC50", "reported value": "~15 nM"}
{"compound": "CC(C)CC(=O)N[C@H](C(=O)N[C@H](C(=O)N[C@@H](CC(C)C)[C@@H](O)CC(=O)N[C@@H](CCCN)C(=O)N[C@@H](CC(C)C)[C@@H](O)CC(=O)O)C(C)C)C(C)C [P1'(Orn)-pepstatin, (N-Iva-Val)-Val-Sta-Orn-Sta] (Isovaleryl-VV[Sta][Orn][Sta]-OH)", "experimental endpoint": "IC50", "reported value": "~30 nM"}
{"compound": "CC(C)CC(=O)N[C@@H](Cc1ccc(O)cc1)C(=O)N[C@H](C(=O)N[C@@H](CC(C)C)[C@@H](O)CC(=O)N[C@@H](C)C(=O)N[C@@H](CC(C)C)[C@@H](O)CC(=O)O)C(C)C [P3(Tyr)-pepstatin, (N-Iva-Tyr)-Val-Sta-Ala-Sta] (Isovaleryl-YV[Sta]A[Sta]-OH)", "experimental endpoint": "IC50", "reported value": "< 5 nM"}
{"compound": "CC(C)CC(=O)N[C@H](C(=O)N[C@H](C(=O)N[C@@H](CC(C)C)[C@@H](O)CC(=O)N[C@@H](CCCNC(=N)N)C(=O)N[C@@H](CC(C)C)[C@@H](O)CC(=O)O)C(C)C)C(C)C [P1'(Arg)-pepstatin, (N-Iva-Val)-Val-Sta-Arg-Sta] (Isovaleryl-VV[Sta]R[Sta]-OH)", "experimental endpoint": "IC50", "reported value": "< 5 nM"}
{"compound": "CC(C)CC(=O)N[C@@H](Cc1ccc(F)cc1)C(=O)N[C@H](C(=O)N[C@@H](CC(C)C)[C@@H](O)CC(=O)N[C@@H](C)C(=O)N[C@@H](CC(C)C)[C@@H](O)CC(=O)O)C(C)C [P3(p-FPhe)-pepstatin, (N-Iva-pFPhe)-Val-Sta-Ala-Sta] (Isovaleryl-[Phe(4-F)]V[Sta]A[Sta]-OH)", "experimental endpoint": "IC50", "reported value": "~10 nM"}
{"compound": "CC(C)CC(=O)N[C@H](C(=O)N[C@@H](CC(F)(F)F)C(=O)N[C@@H](CC(C)C)[C@@H](O)CC(=O)N[C@@H](C)C(=O)N[C@@H](CC(C)C)[C@@H](O)CC(=O)O)C(C)C [P2(TfeGly)-pepstatin, (N-Iva-Val)-TfeGly-Sta-Ala-Sta] (Isovaleryl-V[Abu(4,4,4-F3)][Sta]A[Sta]-OH)", "experimental endpoint": "IC50", "reported value": "~20 nM"}
{"compound": "CC(C)CC(=O)N[C@H](C(=O)N[C@@H](CC(C)(F)F)C(=O)N[C@@H](CC(C)C)[C@@H](O)CC(=O)N[C@@H](C)C(=O)N[C@@H](CC(C)C)[C@@H](O)CC(=O)O)C(C)C [P2(DfpGly)-pepstatin, (N-Iva-Val)-DfpGly-Sta-Ala-Sta] (Isovaleryl-V[X1][Sta]A[Sta]-OH)", "experimental endpoint": "IC50", "reported value": "~15 nM"}
